protocol text: melting temperature; melt of duplexes
applied conditions: sodium 0.0675 M; strand 1 µM
property name: Tm (°C)
Numeric answer only, unit °C assumed.

Example cases with answers are listed next.
substance	Tm (°C)
CGACGTGCCTTATGTGCTG+CAGCACATTGGGCACGTCG (((((((((..((((((((+))))))))..)))))))))	55
CGACGTGCCGGATGTGCTG+CAGCACATGCAGCACGTCG ((((((((.(.((((((((+)))))))).).))))))))	53.1
CGACGTGCCCTATGTGCTG+CAGCACATAATGCACGTCG ((((((((..(((((((((+)))))))))..))))))))	48.8

QUERY: Query Tm for CGACGTGCCATATGTGCTG+CAGCACATGGCGCACGTCG ((((((((...((((((((+))))))))...))))))))
RESULT: 50.3

QUERY: In one line, give reported Tm of the entry CGACGTGCTTGATGTGCTG+CAGCACATAATGCACGTCG ((((((((.(.((((((((+)))))))).).)))))))) .
RESULT: 52.1

QUERY: Let me know recorded Tm for CGACGTGCACTATGTGCTG+CAGCACATGTGGCACGTCG ((((((((...((((((((+))))))))...)))))))) , thanks.
RESULT: 48

QUERY: Assign Tm to the following record: CGACGTGCTCGATGTGCTG+CAGCACATAGTGCACGTCG ((((((((.(.((((((((+)))))))).).))))))))
RESULT: 49.8

// provenance: the array DNA melting data of Ke et al.
